# Tested on: Convolvulus arvensis
# PROTOCOL_SUMMARY: Herbicidal activity against Convolvulus arvensis assessed as diameter of leaf necrosis at 50 ug/ml measured after 2 days post compound treatment by leaf puncture assay
# Assay type: functional
The source made the active and inactive calls. No cut-off for these calls is given here.

COMPOUND	Activity
CC(C)=C[C@H]1C[C@H](C)[C@]2(CC[C@]3(C)C[C@H]4[C@H](C(=O)C[C@@]4(C)O)/C(C=O)=C\C[C@H]32)O1 [OPHIOBOLIN A]	2 mm
CC(C)=C[C@H]1C[C@H](C)[C@]2(CC[C@]3(C)C[C@@H]4C(C)=CC(=O)[C@H]4/C(C=O)=C\C[C@H]32)O1 [3-ANHYDRO-6-EPI-OPHIOBOLIN A]	inactive
CC(C)=C[C@H]1C[C@H](C)[C@]2(CC[C@]3(C)C[C@@H]4C(C)=CC(=O)[C@H]4/C(CO)=C\C[C@H]32)O1	inactive
CC(C)=C[C@H]1C[C@H](C)[C@]2(CC[C@]3(C)C[C@H]4[C@@H](C(=O)C[C@@]4(C)O)/C(C=O)=C\C[C@H]32)O1 [6-EPI-OHPIOBOLIN A]	2 mm

====

# Test system: Bromus sterilis
# PROTOCOL_SUMMARY: Herbicidal activity against Bromus sterilis assessed as diameter of leaf necrosis at 250 ug/ml measured after 2 days post compound treatment by leaf puncture assay
# Format: functional
OBSERVATION_TYPE: Activity

COMPOUND	TEST_TARGET	Activity
CC(C)=C[C@H]1C[C@H](C)[C@]2(CC[C@]3(C)C[C@H]4[C@H](C(=O)C[C@@]4(C)O)/C(C=O)=C\C[C@H]32)O1	Bromus sterilis	>3 mm
CC(C)=C[C@H]1C[C@H](C)[C@]2(CC[C@]3(C)C[C@H]4[C@@H](C(=O)C[C@@]4(C)O)/C(C=O)=C\C[C@H]32)O1 [6-EPI-OHPIOBOLIN A]	Bromus sterilis	2 mm

Reported Activity ( CC(C)=C[C@H]1C[C@H](C)[C@]2(CC[C@]3(C)C[C@@H]4C(C)=CC(=O)[C@H]4/C(C=O)=C\C[C@H]32)O1 [3-ANHYDRO-6-EPI-OPHIOBOLIN A] ) = 1 mm

====

# Tested on: Avena sterilis subsp. ludoviciana
# PROTOCOL_SUMMARY: Herbicidal activity against Avena sterilis subsp. ludoviciana assessed as diameter of leaf necrosis at 250 ug/ml measured after 2 days post compound treatment by leaf puncture assay
# Assay type: functional
Activity calls are given as the source filed them. The calls are words filed in the database; no cut-off is given here.
OBSERVATION_TYPE: Activity

COMPOUND	TEST_TARGET	READING
CC(C)=C[C@H]1C[C@H](C)[C@]2(CC[C@]3(C)C[C@@H]4C(C)=CC(=O)[C@H]4/C(CO)=C\C[C@H]32)O1	Avena sterilis subsp. ludoviciana	inactive
CC(C)=C[C@H]1C[C@H](C)[C@]2(CC[C@]3(C)C[C@H]4[C@H](C(=O)C[C@@]4(C)O)/C(C=O)=C\C[C@H]32)O1	Avena sterilis subsp. ludoviciana	>3 mm
CC(C)=C[C@H]1C[C@H](C)[C@]2(CC[C@]3(C)C[C@@H]4C(C)=CC(=O)[C@H]4/C(C=O)=C\C[C@H]32)O1 [3-ANHYDRO-6-EPI-OPHIOBOLIN A]	Avena sterilis subsp. ludoviciana	inactive
CC(C)=C[C@H]1C[C@H](C)[C@]2(CC[C@]3(C)C[C@H]4[C@@H](C(=O)C[C@@]4(C)O)/C(C=O)=C\C[C@H]32)O1 [6-EPI-OHPIOBOLIN A]	Avena sterilis subsp. ludoviciana	2 mm

====

# Tested on: Digitaria sanguinalis
# PROTOCOL_SUMMARY: Herbicidal activity against Digitaria sanguinalis (hairy crabgrass) assessed as diameter of leaf necrosis at 50 ug/ml measured after 2 days post compound treatment by leaf puncture assay
# Assay type: functional
Active and inactive are the calls of the source. The rule behind the calls is not given here.

MOLECULE	Activity
CC(C)=C[C@H]1C[C@H](C)[C@]2(CC[C@]3(C)C[C@@H]4C(C)=CC(=O)[C@H]4/C(CO)=C\C[C@H]32)O1	inactive
CC(C)=C[C@H]1C[C@H](C)[C@]2(CC[C@]3(C)C[C@H]4[C@@H](C(=O)C[C@@]4(C)O)/C(C=O)=C\C[C@H]32)O1 [6-EPI-OHPIOBOLIN A]	2 mm
CC(C)=C[C@H]1C[C@H](C)[C@]2(CC[C@]3(C)C[C@@H]4C(C)=CC(=O)[C@H]4/C(C=O)=C\C[C@H]32)O1 [3-ANHYDRO-6-EPI-OPHIOBOLIN A]	inactive
CC(C)=C[C@H]1C[C@H](C)[C@]2(CC[C@]3(C)C[C@H]4[C@H](C(=O)C[C@@]4(C)O)/C(C=O)=C\C[C@H]32)O1	>3 mm

====

# Test system: Setaria viridis
# PROTOCOL_SUMMARY: Herbicidal activity against Setaria viridis assessed as diameter of leaf necrosis at 50 ug/ml measured after 2 days post compound treatment by leaf puncture assay
# Type: functional
OBSERVATION_TYPE: Activity

Worked cases, answers included:
MOLECULE	Activity
CC(C)=C[C@H]1C[C@H](C)[C@]2(CC[C@]3(C)C[C@H]4[C@@H](C(=O)C[C@@]4(C)O)/C(C=O)=C\C[C@H]32)O1 [6-EPI-OHPIOBOLIN A]	>3 mm
CC(C)=C[C@H]1C[C@H](C)[C@]2(CC[C@]3(C)C[C@@H]4C(C)=CC(=O)[C@H]4/C(C=O)=C\C[C@H]32)O1 [3-ANHYDRO-6-EPI-OPHIOBOLIN A]	2 mm

Now look at this entry.
Form field, Activity with Setaria viridis, item CC(C)=C[C@H]1C[C@H](C)[C@]2(CC[C@]3(C)C[C@H]4[C@H](C(=O)C[C@@]4(C)O)/C(C=O)=C\C[C@H]32)O1 [OPHIOBOLIN A] : >3 mm

====

# System: Amaranthus retroflexus
# PROTOCOL_SUMMARY: Herbicidal activity against Amaranthus retroflexus assessed as diameter of leaf necrosis at 250 ug/ml measured after 2 days post compound treatment by leaf puncture assay
# Type: functional
Active and inactive are the calls of the source. No cut-off for these calls is given here.

MOLECULE	Activity
CC(C)=C[C@H]1C[C@H](C)[C@]2(CC[C@]3(C)C[C@@H]4C(C)=CC(=O)[C@H]4/C(CO)=C\C[C@H]32)O1	inactive
CC(C)=C[C@H]1C[C@H](C)[C@]2(CC[C@]3(C)C[C@H]4[C@@H](C(=O)C[C@@]4(C)O)/C(C=O)=C\C[C@H]32)O1 [6-EPI-OHPIOBOLIN A]	1 mm
CC(C)=C[C@H]1C[C@H](C)[C@]2(CC[C@]3(C)C[C@H]4[C@H](C(=O)C[C@@]4(C)O)/C(C=O)=C\C[C@H]32)O1	>3 mm
CC(C)=C[C@H]1C[C@H](C)[C@]2(CC[C@]3(C)C[C@@H]4C(C)=CC(=O)[C@H]4/C(C=O)=C\C[C@H]32)O1 [3-ANHYDRO-6-EPI-OPHIOBOLIN A]	inactive

====

# Test system: Avena sterilis subsp. ludoviciana
# PROTOCOL_SUMMARY: Herbicidal activity against Avena sterilis subsp. ludoviciana assessed as diameter of leaf necrosis at 100 ug/ml measured after 2 days post compound treatment by leaf puncture assay
# Type: functional
Activity calls are given as the source filed them. The calls are words filed in the database; no cut-off is given here.

COMPOUND	Activity
CC(C)=C[C@H]1C[C@H](C)[C@]2(CC[C@]3(C)C[C@@H]4C(C)=CC(=O)[C@H]4/C(CO)=C\C[C@H]32)O1	inactive
CC(C)=C[C@H]1C[C@H](C)[C@]2(CC[C@]3(C)C[C@H]4[C@H](C(=O)C[C@@]4(C)O)/C(C=O)=C\C[C@H]32)O1	>3 mm
CC(C)=C[C@H]1C[C@H](C)[C@]2(CC[C@]3(C)C[C@@H]4C(C)=CC(=O)[C@H]4/C(C=O)=C\C[C@H]32)O1 [3-ANHYDRO-6-EPI-OPHIOBOLIN A]	inactive
CC(C)=C[C@H]1C[C@H](C)[C@]2(CC[C@]3(C)C[C@H]4[C@@H](C(=O)C[C@@]4(C)O)/C(C=O)=C\C[C@H]32)O1 [6-EPI-OHPIOBOLIN A]	2 mm
